Provide the reported IC50 of each item.
# assaySystem: CYP3A4 (Homo sapiens, UniProt P08684)
# Sequence (P08684 whole entry): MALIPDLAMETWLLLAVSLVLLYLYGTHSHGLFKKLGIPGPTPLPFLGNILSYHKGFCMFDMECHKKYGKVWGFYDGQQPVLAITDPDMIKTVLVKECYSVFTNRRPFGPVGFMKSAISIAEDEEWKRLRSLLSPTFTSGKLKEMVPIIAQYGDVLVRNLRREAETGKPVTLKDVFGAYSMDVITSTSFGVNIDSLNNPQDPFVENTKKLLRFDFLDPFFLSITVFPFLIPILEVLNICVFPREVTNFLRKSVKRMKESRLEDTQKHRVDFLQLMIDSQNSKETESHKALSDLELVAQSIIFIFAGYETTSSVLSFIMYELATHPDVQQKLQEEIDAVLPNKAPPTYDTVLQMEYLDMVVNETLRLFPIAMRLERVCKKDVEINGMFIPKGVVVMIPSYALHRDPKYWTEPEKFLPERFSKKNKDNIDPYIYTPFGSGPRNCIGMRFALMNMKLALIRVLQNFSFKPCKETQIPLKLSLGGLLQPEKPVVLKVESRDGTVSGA
# experimentDescription: Determination of CYP3A4 inhibitory activity (human liver microsome, Luciferin-IPA)
# measurementSetup: CYP3A4 IC50 (nM), 37° C. 11 minutes

COc1cncc(CN(CCc2ccc(NC(=O)c3ccc(C(=O)OCCN4CCN(C)CC4)cc3NC(=O)c3cc(=O)c4ccccc4o3)cc2)Cc2ccc3c(cnn3C)c2)c1 [Compound 272]
250 to 500 nM
COc1ccc(CN(CCc2ccc(NC(=O)c3ccc(C(=O)O)cc3NC(=O)c3cc(=O)c4ccccc4o3)cc2)Cc2ccc(OC)c(OC)c2)cc1OC [Compound 264]
> 1000 nM
CCN(CCc1ccc(NC(=O)c2cc(OC)c(OC)cc2NC(=O)c2cc(=O)c3ccccc3o2)cc1)Cc1ccc(O)c(OC)c1 [Compound 135]
500 to 1000 nM
COc1cc(NC(=O)c2cc(=O)c3ccccc3o2)c(C(=O)Nc2ccc(CCN(CCN3CCOCC3)Cc3ccc4c(cnn4C)c3)cc2)cc1OC [Compound 149]
> 1000 nM
CCN1CNC=C1CN(CCc1ccc(NC(=O)c2cc(OC)c(OC)cc2NC(=O)c2cc(=O)c3ccccc3o2)cc1)Cc1ccc2cnn(C)c2c1 [Compound 37]
100 to 250 nM
COc1cc(NC(=O)C2CC(=O)c3cc(C)ccc3O2)c(C(=O)Nc2ccc(CCN(Cc3cccc(-n4ccnc4)c3)Cc3ccc4c(cnn4C)c3)cc2)cc1OC (stereo not drawn) [Compound 199]
500 to 1000 nM

Provide IC50 for all items below, preserving their order.
1. COc1cc(NC(=O)c2cc(=O)c3ccccc3o2)c(C(=O)Nc2ccc(CCN(Cc3cccc(-n4ccnc4)c3)C(C)C)cc2)cc1OC [Compound 10]
2. CCN(CCc1ccc(NC(=O)c2cc(OC)c(OC)cc2NC(=O)c2cc(=O)c3ccccc3o2)cc1)Cc1ccc2cnn(C)c2c1 [Compound 164]

[out]
1: 250 to 500 nM; 2: > 1000 nM

[in] Given the entry COc1cc(NC(=O)c2cc(=O)c3ccccc3o2)c(C(=O)Nc2ccc(CCN(Cc3cccc(-n4ccnc4)c3)Cc3ccc4c(c3)nnn4C)cc2)cc1OC [Compound 50] , what IC50 was observed with CYP3A4 (Homo sapiens, UniProt P08684)?
[out] 100 to 250 nM
